protocol.text: Quantitative highthroughput screen to assess conditional lethalithy of NOMO1 cells grown in RPMI1640 with dialyzed fetal bovine serum (RPMI+ds) (AID 1963877); note: nearly all actives have a fitted effect of over 30% in size; note: potency is the fitted concentration of half-maximal effect
condition.notes: NOMO1 in RPMI+dialyzed FBS viability, ATP luminescence, 48 h; series mostly up to 45.8 µM
Results filed as inconclusive are left out. Calls of active or inactive are those of the source. Calls come from the whole dose curve; as a rule, active = well fitted cell-killing curve with a large enough effect; inconclusive = small, poorly fitted or top-dose-only effect; inactive = flat fitted curve, though single readings scatter.

# given.smiles, Potency
rows = [
    ("CCC[C@H]1C[C@H](C(=O)N[C@@H]([C@@H]2O[C@@H](SC)[C@@H](O)[C@@H](O)[C@@H]2O)[C@H](C)Cl)N(C)C1", "inactive"),
    ("COc1cc2ncn(-c3cc(OCc4ccccc4S(C)(=O)=O)c(C#N)s3)c2cc1OC", "inactive"),
    ("CCN(CC)CCOc1ccc(Cc2ccccc2)cc1", "inactive"),
    ("CCC(C=C[C@@H]1OC(=O)C=C[C@H]1C)=C[C@H](C)CC=CC(C)=C[C@@H](C)C(=O)[C@@H](C)[C@H](O)[C@@H](C)CC(C)=CC(=O)O", "87.7 nM (active)"),
]

* * *

protocol.text: Quantitative highthroughput screen to assess conditional lethalithy of P12 Ichikawa cells grown in RPMI1640 with untreated serum (RPMI+s) (AID 1963881); note: nearly all actives have a fitted effect of over 35% in size
condition.notes: ATP luminescence, 48 h; viability; series mostly up to 45.8 µM
Results filed as inconclusive are left out. The source made the active and inactive calls. The call rests on the fitted dose curve; in most records, active means well fitted cell-killing curve with a large enough effect; inconclusive means small, poorly fitted or top-dose-only effect; inactive means flat fitted curve, though single readings scatter.
Choose the fitting class; nothing outside active, inactive is accepted.

# compound, group.label
data = [
    ("COc1ccccc1N1CCN(CCN(C(=O)C2CCCCC2)c2ccccn2)CC1", "inactive"),
    ("COc1cccc2c(NCc3ccccc3)nc(-n3c(N)nc4ccccc43)nc12", "active"),
    ("N#Cc1ccc(NC(=O)Nc2ccccc2Br)c2n[nH]nc12", "inactive"),
    ("CCNC(=O)Nc1ccc2ncc(Nc3ccc(C)cc3)nc2n1", "inactive"),
    ("COc1ccccc1OCC(O)COC(N)=O (stereo unspecified)", "inactive"),
]

## Input Hey, what did the test say about C[C@]12C=CC(=O)N[C@@H]1CC[C@H]1[C@H]3CC[C@@H](C(=O)Nc4cc(C(F)(F)F)ccc4C(F)(F)F)[C@@]3(C)CC[C@@H]12 ?
## Output inactive

## Input Hey, what did the test say about NCCCC(N)(C(=O)O)C(F)F (stereo unspecified) ?
## Output inactive

* * *

protocol.text: Quantitative highthroughput screen to assess conditional lethalithy of P12 Ichikawa cells grown in Human Plasma-Like Medium with dialyzed fetal bovine serum (HPLM+ds) (AID 1963879); note: nearly all actives have a fitted effect of over 35% in size
condition.notes: ATP luminescence, 48 h; viability; series mostly up to 45.8 µM
Method: Assay Provider: Jason Cantor Ph.D. Department of Biochemistry University of Wisconsin-Madison, Madison, WI, USA Chemical screening studies have identified drug sensitivities across hundreds of cancer cell lines but most putative therapeutics fail to translate. […] Sets of conditional anticancer compounds spanned phases of clinical development and included non-oncology drugs were assessed. […] 6; Detection; Luminescence, Viewlux PerkinElmer. […]
Records with an inconclusive call do not appear. The source made the active and inactive calls. Calls follow the shape of the dose curve; as a rule, active = well fitted cell-killing curve with a large enough effect; inconclusive = small, poorly fitted or top-dose-only effect; inactive = flat fitted curve, though single readings scatter.
Choose the fitting class; nothing outside yes = active, no = inactive is accepted.

Below are worked cases with known answers.
# compound, group.label
records = [
    ("O=C(CCc1ccc(O)cc1)c1c(O)cc(O)cc1O[C@@H]1O[C@H](CO)[C@H](O)[C@H](O)[C@H]1O", "no"),
    ("CCOC(=O)C1=C[C@]2(CC)CCCN3CCc4c(n1c1ccccc41)[C@@H]32", "no"),
    ("CC1COc2c(N3CCN(C)CC3)c(F)cc3c(=O)c(C(=O)O)cn1c23 (stereo not drawn)", "no"),
]

## Input Hey, what did the test say about CCc1cccc2c3c([nH]c12)C(CC)(CC(=O)O)OCC3 (stereo not drawn) ?
## Output no

## Input Hey, what did the test say about CC(C)n1c(C=C[C@H](O)C[C@H](O)CC(=O)O)c(-c2ccc(F)cc2)c2ccccc21 ?
## Output yes

## Input Hey, what did the test say about COC(=O)N[C@H](C(=O)N1CCC[C@@H]1c1ncc(-c2ccc(-c3ccc(-c4cnc([C@@H]5CCCN5C(=O)[C@@H](NC(=O)OC)C(C)C)[nH]4)cc3)cc2)[nH]1)C(C)C ?
## Output no

## Input Hey, what did the test say about Cc1cnc(Nc2ccc(N3CCN(C)CC3)cc2)nc1Nc1cccc(S(=O)(=O)NC(C)(C)C)c1 ?
## Output yes

## Input Hey, what did the test say about COc1cc2c(Nc3ccc(Br)cc3F)ncnc2cc1OCC1CCN(C)CC1 ?
## Output no

* * *

protocol.text: Viability qHTS for spleen associated tyrosine kinase inhibitor (SYKi) drug resistant MV4-11 cells (AID 1963824); note: nearly all actives have a fitted effect of over 35% in size
condition.notes: SYKi-resistant MV4-11 viability, CellTiter-Glo, 72 h; series mostly up to 45 µM
Records with an inconclusive call do not appear. Activity calls are given as the source filed them. The call rests on the fitted dose curve; in most records, active means well fitted cell-killing curve with a large enough effect; inconclusive means small, poorly fitted or top-dose-only effect, or effect the other way; inactive means no such curve, though single readings can be large or run the other way.
Choose the fitting class; nothing outside yes = active, no = inactive is accepted.

Below are worked cases with known answers.
# compound, group.label
rows = [
    ("C=CC(=O)N1CC[C@@H](Oc2nc(Nc3ccc(N4CCC(N5CCN(C)CC5)CC4)cc3)c(C(N)=O)nc2CC)C1", "yes"),
    ("C1COC(NC(C2CC2)C2CC2)=N1", "no"),
    ("Nc1nnc(-c2cccc(Cl)c2Cl)c(N)n1", "no"),
    ("CS(=O)(=O)Nc1ccc([N+](=O)[O-])cc1Oc1ccccc1", "yes"),
]

## Input Hey, what did the test say about Cn1cc(S(=O)(=O)c2ccc(Cl)cc2)c2cccc(N3CCNCC3)c21 ?
## Output yes

## Input Hey, what did the test say about NCCS ?
## Output no

## Input Hey, what did the test say about CNC(C)C(=O)NC(C(=O)N1CCCC1c1nc(C(=O)c2ccc(F)cc2)cs1)C1CCCCC1 (centres undefined) ?
## Output yes

## Input Hey, what did the test say about Cc1c(C(=O)NCCO)[n+](=O)c2ccccc2n1[O-] ?
## Output no

## Input Hey, what did the test say about Nc1ncccc1-c1nc2ccc(-c3ccccc3)nc2n1-c1ccc(C2(N)CCC2)cc1 ?
## Output yes

* * *

protocol.text: Quantitative highthroughput screen to assess conditional lethalithy of SEM cells grown in Human Plasma-Like Medium with dialyzed fetal bovine serum (HPLM+ds) (AID 1963882); note: nearly all actives have a fitted effect of over 35% in size
condition.notes: SEM B-ALL cells in HPLM+ds, CellTiter-Glo viability, 48 h; series mostly up to 45.8 µM
Records with an inconclusive call do not appear. Activity calls are given as the source filed them. The call rests on the fitted dose curve; in most records, active means well fitted cell-killing curve with a large enough effect; inconclusive means small, poorly fitted or top-dose-only effect, or effect the other way; inactive means no such curve, though single readings can be large or run the other way.
Choose the fitting class; nothing outside active, inactive is accepted.

Below are worked cases with known answers.
# molecule, group.label
records = [
    ("Cc1noc(NS(=O)(=O)c2ccc(N)cc2)c1C", "inactive"),
    ("O=C(Nc1ccccc1)Nc1ccc(-c2ccc(C(=O)[C@H]3CCC[C@H]3C(=O)O)cc2)cc1", "inactive"),
    ("CC(=O)OCC(CCn1cnc2cnc(N)nc21)COC(C)=O", "inactive"),
    ("Nc1ncnc2ccccc12", "inactive"),
    ("Cc1ncc(-c2ccnc(Nc3ccc(S(C)(=O)=O)cc3)n2)n1C(C)C", "active"),
    ("CC(C)C[C@H](NC(=O)[C@H](CCc1ccccc1)NC(=O)CN1CCOCC1)C(=O)N[C@@H](Cc1ccccc1)C(=O)N[C@@H](CC(C)C)C(=O)[C@@]1(C)CO1", "active"),
    ("O=C(c1cncc(Br)c1)N1CCC(N2CCCC2)CC1", "inactive"),
    ("c1cc(-c2sc(-c3ccncc3)c(-c3ccncc3)c2-c2ccncc2)ccn1", "active"),
    ("CNc1nccc(-c2cccnc2Oc2cc(C(=O)Nc3cccc(C(F)(F)F)c3)ccc2C)n1", "inactive"),
    ("NS(=O)(=O)c1cc2c(cc1Cl)NC(C(Cl)Cl)NS2(=O)=O (stereo not drawn)", "inactive"),
]

## Input Hey, what did the test say about CNC1CCC(N(Cc2cccc(-c3ccncc3)c2)C(=O)c2sc3ccccc3c2Cl)CC1 (stereo not drawn) ?
## Output active

* * *

protocol.text: Viability qHTS for spleen associated tyrosine kinase inhibitor (SYKi) drug resistant MV4-11 cells (AID 1963824); note: nearly all actives have a fitted effect of over 35% in size; note: potency is the fitted concentration of half-maximal effect
condition.notes: SYKi-resistant MV4-11 viability, CellTiter-Glo, 72 h; series mostly up to 45 µM
Results filed as inconclusive are left out. Calls of active or inactive are those of the source. Calls come from the whole dose curve; as a rule, active = well fitted cell-killing curve with a large enough effect; inconclusive = small, poorly fitted or top-dose-only effect, or effect the other way; inactive = no such curve, though single readings can be large or run the other way.
recorded.endpoint: Potency

# molecule, recorded.endpoint, observed
measured = [
    ("CC1=CC(=O)c2ccccc2C1=O", "Potency", "4.68 µM (active)"),
    ("CC[C@@]1(O)C(=O)OCc2c1cc1n(c2=O)Cc2c-1nc1cc(F)c(C)c3c1c2[C@@H](N)CC3", "Potency", "0.0042 µM (active)"),
    ("C[C@H]1CNC(=O)c2cnn3ccc(nc23)N[C@H](C)c2cc(F)ccc2O1", "Potency", "0.934 µM (active)"),
    ("CC1=C(C(=O)O[C@@H]2O[C@H](COC3OCC(O)C(O)C3O)[C@@H](O)[C@H](O)[C@H]2O)C(C)(C)CCC1 (stereo not given in full)", "Potency", "inactive"),
]

// for each molecule in input: emit Potency
1. FC(F)(F)C(Cl)Br (stereo not given)
2. COc1ccccc1O

## Output
["inactive", "inactive"]

// for each molecule in input: emit Potency
1. COc1ccc2cc(OCC3(C(=O)O)CN(C(=O)c4ccc(F)cc4)C3)ccc2c1
2. C[C@@]12O[C@@H](C[C@]1(O)CO)n1c3ccccc3c3c4c(c5c6ccccc6n2c5c31)CNC4=O

## Output
1: inactive; 2: 0.0074 µM (active)
